- protocol-details: Inhibition of yeast alpha-glucosidase assessed as p-nitrophenol release by spectrophotometrically
- Parameters: species or system Saccharomyces cerevisiae
pIC50: −log10 of the molar value.
measure: pIC50

Reference set (3 entries):
| chemical-smiles | reported-result |
| --- | --- |
| OCCN1C[C@@H](O)[C@H](O)[C@H]1CO | 3.54 |
| OC[C@H]1NC[C@H](O)[C@@H]1O | 3.64 |
| OC[C@H]1NC[C@@H](O)[C@@H]1O | 5.92 |

[1] C[C@H]1N[C@H](CO)[C@@H](O)[C@@H]1O
[2] C[C@H]1N[C@@H](CO)[C@H](O)[C@H]1O
Incoming: Pick one: 1 or 2 . Which has the bigger pIC50 number? Reply with the label of the item you choose.
Outgoing: 1
(1: 3.57, 2: 3.24)

* * *

- assayed-system: Sucrase-isomaltase, intestinal (Rattus norvegicus, UniProt P23739)
- Sequence (P23739 1-1013 limits assumed): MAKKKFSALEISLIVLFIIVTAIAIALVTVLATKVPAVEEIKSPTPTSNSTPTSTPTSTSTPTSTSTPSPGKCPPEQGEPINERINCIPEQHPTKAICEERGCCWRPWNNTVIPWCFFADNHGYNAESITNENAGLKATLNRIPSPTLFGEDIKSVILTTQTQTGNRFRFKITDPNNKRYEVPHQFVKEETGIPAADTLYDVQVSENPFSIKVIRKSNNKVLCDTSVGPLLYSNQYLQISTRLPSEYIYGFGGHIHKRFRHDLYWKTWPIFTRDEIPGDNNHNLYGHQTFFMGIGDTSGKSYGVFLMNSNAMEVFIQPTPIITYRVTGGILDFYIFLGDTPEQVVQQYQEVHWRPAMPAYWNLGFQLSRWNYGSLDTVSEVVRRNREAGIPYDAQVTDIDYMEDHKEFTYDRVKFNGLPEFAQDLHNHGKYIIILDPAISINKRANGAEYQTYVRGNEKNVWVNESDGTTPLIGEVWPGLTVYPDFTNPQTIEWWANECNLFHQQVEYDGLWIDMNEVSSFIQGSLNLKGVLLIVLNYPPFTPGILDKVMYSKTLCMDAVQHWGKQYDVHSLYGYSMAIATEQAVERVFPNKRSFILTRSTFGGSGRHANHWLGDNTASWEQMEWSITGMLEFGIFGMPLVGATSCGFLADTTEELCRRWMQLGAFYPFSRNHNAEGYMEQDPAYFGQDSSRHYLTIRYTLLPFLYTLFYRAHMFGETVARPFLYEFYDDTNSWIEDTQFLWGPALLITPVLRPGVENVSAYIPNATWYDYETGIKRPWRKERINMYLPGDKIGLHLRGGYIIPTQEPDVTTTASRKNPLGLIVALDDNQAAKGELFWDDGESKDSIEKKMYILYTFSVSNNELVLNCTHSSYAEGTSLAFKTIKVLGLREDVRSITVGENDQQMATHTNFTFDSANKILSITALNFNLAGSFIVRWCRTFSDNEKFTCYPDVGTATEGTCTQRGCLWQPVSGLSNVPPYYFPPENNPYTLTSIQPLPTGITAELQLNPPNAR
- Sequence (P23739 1014-1841 limits assumed): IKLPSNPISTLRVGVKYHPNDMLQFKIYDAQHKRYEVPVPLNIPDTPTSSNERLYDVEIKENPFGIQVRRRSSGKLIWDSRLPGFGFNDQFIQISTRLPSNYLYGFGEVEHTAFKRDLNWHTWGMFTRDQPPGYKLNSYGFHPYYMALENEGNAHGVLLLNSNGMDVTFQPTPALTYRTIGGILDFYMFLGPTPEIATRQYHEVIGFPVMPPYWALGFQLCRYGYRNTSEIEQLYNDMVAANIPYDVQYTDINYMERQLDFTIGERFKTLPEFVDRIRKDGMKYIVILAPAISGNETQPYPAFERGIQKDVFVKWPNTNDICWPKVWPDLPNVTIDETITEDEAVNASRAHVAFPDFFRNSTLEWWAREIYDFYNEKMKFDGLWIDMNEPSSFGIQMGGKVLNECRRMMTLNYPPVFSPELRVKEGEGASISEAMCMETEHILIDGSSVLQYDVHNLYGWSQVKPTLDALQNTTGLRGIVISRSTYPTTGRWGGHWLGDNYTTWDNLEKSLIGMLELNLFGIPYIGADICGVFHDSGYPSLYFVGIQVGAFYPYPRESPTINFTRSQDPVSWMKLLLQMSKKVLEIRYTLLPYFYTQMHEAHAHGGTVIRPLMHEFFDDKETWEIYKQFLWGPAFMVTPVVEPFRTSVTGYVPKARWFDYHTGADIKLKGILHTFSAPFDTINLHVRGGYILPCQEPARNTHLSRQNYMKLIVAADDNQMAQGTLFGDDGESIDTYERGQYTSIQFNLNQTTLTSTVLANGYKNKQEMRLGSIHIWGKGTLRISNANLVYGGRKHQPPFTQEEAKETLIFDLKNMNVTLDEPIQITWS
- protocol-details: Inhibition of rat intestinal isomaltase assessed as glucose release by Glucose B-test
measure: IC50 (µM)
Numeric only. Scale: µM

Incoming: Could you tell me which IC50 is on file for OCCN1C[C@@H](O)[C@H](O)[C@H]1CO ?
Outgoing: 84

* * *

- protocol-details: Inhibition of Aspergillus niger amyloglucosidase assessed as glucose release by Glucose B-test
measure: IC50 (µM)

Reference set (2 entries):
| chemical-smiles | quantity-unit | reported-result |
| --- | --- | --- |
| OC[C@H]1NC[C@@H](O)[C@@H]1O | µM | 400 |
| OCCN1C[C@@H](O)[C@H](O)[C@H]1CO | µM | 620 |

[P] C[C@H]1N[C@@H](CO)[C@H](O)[C@H]1O
[Q] C[C@H]1N[C@H](CO)[C@@H](O)[C@@H]1O
[R] OC[C@H]1NC[C@H](O)[C@@H]1O
Incoming: Thanks in advance: please rank these 3 entries by IC50, highest to lowest. When ranking, write the labels in the order the request describes.
Outgoing: R, P, Q
(R: 1000 µM, P: 510 µM, Q: 160 µM)

* * *

Heads up, these molecules all have IC50 values measured for Beta-galactosidase (Bos taurus).
measure: IC50 (µM)

| chemical-smiles | IC50 / µM |
| --- | --- |
| OC[C@H]1NC[C@H](O)[C@@H]1O | 380 |

[P] C[C@H]1N[C@@H](CO)[C@H](O)[C@H]1O
[Q] C[C@H]1N[C@H](CO)[C@@H](O)[C@@H]1O
Incoming: Pick one: P or Q . Which has the bigger IC50 number? Reply with the label of the item you choose.
Outgoing: P
(P: 420 µM, Q: 30 µM)
